Experiment: Tmax in rat plasma at 50 mg/kg, po and measured upto 24 hr by LC-MS/MS analysis
Format: ADME, organism-based
Reported endpoint: Tmax (min)
Give the value in min but do not write min after it.

Request: Reported Tmax, molecule O=C(NCCCN1CCOCC1)[C@H]1C[C@H](c2ccccc2)CN1C(=O)c1cc(C2CC2)c(O)cc1O : ____
Response: 53

Request: Moving on to CC(C)c1cc(C(=O)N2C[C@@H](c3ccccc3)C[C@@H]2C(=O)NCCCN2CCOCC2)c(O)cc1O
Response: 44

---

In what follows, each item is paired with its pIC50 for Heat shock protein HSP 90-alpha (Homo sapiens, UniProt P07900).
# reply with the number alone; pIC50 is -log10 of concentration in mol/L

Request: Which pIC50 is reported with Heat shock protein HSP 90-alpha (Homo sapiens, UniProt P07900) for this entry: O=C(NCCCN1CCOCC1)[C@H]1C[C@H](c2ccccc2)CN1C(=O)c1cc(C2CC2)c(O)cc1O ?
Response: 6.87

Request: Moving on to CC(C)c1cc(C(=O)N2C[C@@H](c3ccccc3)C[C@@H]2C(=O)NCCCN2CCOCC2)c(O)cc1O
Response: 6.81

Request: Moving on to CC(C)c1cc(C(=O)N2Cc3ccc(CN4CCN(C)CC4)cc3C2)c(O)cc1O [ONALESPIB]
Response: 7.30

Request: Moving on to CC(C)c1cc(C(=O)N2C[C@@H](c3ccccc3)C[C@@H]2C(=O)NCCc2ccccc2)c(O)cc1O
Response: 6.86
